# Tested on: human G12D mutant KRAS-positive pancreatic cancer line AsPC-1
# MEASUREMENT_NOTES: Test Example 3: non-anchorage-dependent cell growth inhibition, spheroid 3D cell culture
# Format: cell-based
# REPORTED_CONDITIONS: Homo sapiens, ASPC1, 144 h, AsPC-1 spheroid 3D culture, 6 days, CellTiter Glo 2.0; read-out: IC50
pIC50: −log10 of the molar value. Counter-ions that a name gives are not always drawn.

# COMPOUND, pIC50
rows = [
    ("Cc1c(F)cc2[nH]ncc2c1-c1c(C2CC2)cc2c(N3C[C@@H]4C[C@H]3CN4)nc(OC3CCOCC3)nc2c1OCc1ccc(-c2cn([C@H](C(=O)N3C[C@H](O)C[C@H]3C(=O)N[C@@H](CO)c3ccc(N4CCOC4=O)cc3)C(C)C)nn2)cc1", 7.10),
    ("CO[C@@H](C)COc1nc(N2C[C@@H]3C[C@H]2CN3)c2cc(C3CC3)c(-c3c(C)c(F)cc4[nH]ncc34)c(OCc3ccc(-c4cn([C@H](C(=O)N5C[C@H](O)C[C@H]5C(=O)N[C@@H](CO)c5ccc(-c6ocnc6C)cc5)C(C)C)nn4)cc3)c2n1", 7.59),
    ("Cc1ncsc1-c1ccc([C@@H](CO)NC(=O)[C@@H]2C[C@@H](O)CN2C(=O)[C@H](C(C)C)n2cc(-c3ccc(COc4c(-c5c(C)c(F)cc6[nH]ncc56)c(C5CC5)cc5c(N6C[C@@H]7C[C@H]6CN7)nc(OC6CCOCC6)nc45)cc3)nn2)cc1", 5.79),
    ("Cc1ncsc1-c1ccc([C@H](CO)NC(=O)[C@@H]2C[C@@H](O)CN2C(=O)[C@H](C(C)C)n2cc(-c3ccc(COc4c(-c5c(C)c(F)cc6[nH]ncc56)c(C5CC5)cc5c(N6C[C@@H]7C[C@H]6CN7)nc(OC6CCOCC6)nc45)cc3)nn2)cc1 [Example 7, hydrochloride]", 7.51),
]

---

DC50 values, listed per item
# MEASUREMENT_TARGET: KRAS G12D (Homo sapiens, UniProt P01116, G12D)
# Construct: host or cells: AsPC-1 human pancreatic cancer cells
# Sequence (P01116 1-188 isoform P01116-2 G12D): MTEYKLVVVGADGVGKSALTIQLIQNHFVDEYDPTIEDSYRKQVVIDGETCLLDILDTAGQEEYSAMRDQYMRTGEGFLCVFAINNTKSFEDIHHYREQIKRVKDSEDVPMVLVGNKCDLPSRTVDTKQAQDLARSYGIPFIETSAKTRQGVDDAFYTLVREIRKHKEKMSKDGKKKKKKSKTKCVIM
# MEASUREMENT_NOTES: Test Example 1-2: KRAS degradation action in AsPC-1, Cell ELISA
# Assay type: cell-based
# REPORTED_CONDITIONS: AsPC-1 cells, overnight treatment, corrected with β-actin, 0% = 10 μM Example No. 26 (Example No. 8 for Example Nos. 74 and 75)

# MOLECULE, MEASUREMENT_TARGET, DC50 [nM]
measured = [
    ("CO[C@@H](C)COc1nc(N2C[C@@H]3C[C@H]2CN3)c2cc(C3CC3)c(-c3c(C)c(F)cc4[nH]ncc34)c(OCc3ccc(-c4cn([C@H](C(=O)N5C[C@H](O)C[C@H]5C(=O)N[C@@H](CO)c5ccc(F)cc5)C(C)C)nn4)cc3)c2n1 [Example 58]", "KRAS G12D (Homo sapiens, UniProt P01116, G12D)", 37),
    ("CCn1nccc1-c1ccc([C@H](CO)NC(=O)[C@@H]2C[C@@H](O)CN2C(=O)[C@H](C(C)C)n2cc(-c3ccc(COc4c(-c5c(C)c(F)cc6[nH]ncc56)c(C5CC5)cc5c(N6C[C@@H]7C[C@H]6CN7)nc(OC[C@H](C)OC)nc45)cc3)nn2)cc1 [Example 70]", "KRAS G12D (Homo sapiens, UniProt P01116, G12D)", 14),
    ("Cc1c(F)cc2[nH]ncc2c1-c1c(C2CC2)cc2c(N3C[C@@H]4C[C@H]3CN4)nc(OC3CCOCC3)nc2c1OCc1ccc(-c2cn([C@H](C(=O)N3C[C@H](O)C[C@H]3C(=O)N[C@@H](CO)c3ccc(-n4ccnc4C)cc3)C(C)C)nn2)cc1 [Example 69]", "KRAS G12D (Homo sapiens, UniProt P01116, G12D)", 31),
    ("Cc1ncsc1-c1ccc([C@H](CO)NC(=O)[C@@H]2C[C@@H](O)CN2C(=O)[C@@H](NC(=O)CCN(C)C(=O)c2ccc(COc3c(-c4c(C)c(F)cc5[nH]ncc45)c(C4CC4)cc4c(N5C[C@@H]6C[C@H]5CN6)nc(OC5CCOCC5)nc34)cc2)C(C)C)cc1 [Example 74]", "KRAS G12D (Homo sapiens, UniProt P01116, G12D)", 1000),
    ("Cc1ncsc1-c1ccc([C@H](CO)NC(=O)[C@@H]2C[C@@H](O)CN2C(=O)[C@H](C(C)C)n2cc(-c3ccc(COc4c(-c5c(C)c(F)cc6[nH]ncc56)c(C5CC5)cc5c(N6C[C@@H]7C[C@H]6CN7)nc(O[C@H](C)CN6CCOCC6)nc45)cc3)nn2)cc1 [Example 45]", "KRAS G12D (Homo sapiens, UniProt P01116, G12D)", 15),
    ("Cc1ncsc1-c1ccc([C@H](CO)NC(=O)[C@@H]2C[C@@H](O)CN2C(=O)[C@H](C(C)C)n2cc(-c3ccc(COc4c(-c5c(C)c(F)cc6[nH]ncc56)c(C5CC5)cc5c(N6C[C@@H]7C[C@H]6CN7)nc(O[C@H]6CCN(CC(F)F)C6)nc45)cc3)nn2)cc1 [Example 33]", "KRAS G12D (Homo sapiens, UniProt P01116, G12D)", 30),
    ("Cc1ncsc1-c1ccc([C@H](CO)NC(=O)[C@@H]2C[C@@H](O)CN2C(=O)[C@H](C(C)C)n2cc(-c3ccc(COc4c(-c5c(C)c(F)cc6[nH]ncc56)c(C5CC5)cc5c(N6C[C@@H]7C[C@H]6CN7)nc(OC[C@H](C)N6CCOCC6)nc45)cc3)nn2)cc1 [Example 65]", "KRAS G12D (Homo sapiens, UniProt P01116, G12D)", 14),
]

---

# MEASUREMENT_TARGET: KRAS G12D (Homo sapiens, UniProt P01116, G12D)
# Construct: host or cells: AsPC-1 human pancreatic cancer cells
# MEASUREMENT_NOTES: Test Example 1-2: KRAS degradation action in AsPC-1, Cell ELISA
# Type: cell-based
# REPORTED_CONDITIONS: AsPC-1 cells, overnight treatment, corrected with β-actin, 0% = 10 μM Example No. 26 (Example No. 8 for Example Nos. 74 and 75)
DC50 values, listed per item

# COMPOUND, DC50 / nM
rows = [
    ("Cc1ncsc1-c1ccc([C@H](CO)NC(=O)[C@@H]2C[C@@H](O)CN2C(=O)[C@H](C(C)C)n2cc(-c3ccc(COc4c(-c5c(C)c(F)cc6[nH]ncc56)c(C5CC5)cc5c(N6C[C@@H]7C[C@H]6CN7)nc(NCCO)nc45)cc3)nn2)cc1 [Example 66]", 250),
    ("Cc1ncsc1-c1ccc([C@H](CO)NC(=O)[C@@H]2C[C@@H](O)CN2C(=O)[C@H](C(C)C)n2cc(-c3ccc(COc4c(-c5c(C)c(F)cc6[nH]ncc56)c(C5CC5)cc5c(N6C[C@@H]7C[C@H]6CN7)nc(OC6CCOCC6)nc45)cc3)nn2)nc1 [Example 35]", 84),
    ("Cc1ncsc1-c1ccc([C@H](CO)NC(=O)[C@@H]2C[C@@H](O)CN2C(=O)[C@H](C(C)C)n2cc(-c3ccc(COc4c(-c5c(C)c(F)cc6[nH]ncc56)c(C5CC5)cc5c(N6C[C@@H]7C[C@H]6CN7)nc(OC[C@@H]6CCOC6)nc45)cc3)nn2)cc1 [Example 50]", 11),
    ("Cc1ncsc1-c1ccc([C@H](CO)NC(=O)[C@@H]2C[C@@H](O)CN2C(=O)[C@H](C(C)C)n2cc(-c3ccc(COc4c(-c5c(C)c(F)cc6[nH]ncc56)c(C5CC5)cc5c(N6C[C@@H]7C[C@H]6CN7)nc(OC[C@@H]6CCCN6C)nc45)cc3)nn2)cc1 [Example 57]", 134),
]

---

# MEASUREMENT_TARGET: KRAS G12D (Homo sapiens, UniProt P01116, G12D)
# Construct: host or cells: AsPC-1 human pancreatic cancer cells
# MEASUREMENT_NOTES: Test Example 1-2: KRAS degradation action in AsPC-1, Cell ELISA
# Assay type: cell-based
# REPORTED_CONDITIONS: AsPC-1 cells, overnight treatment, corrected with β-actin, 0% = 10 μM Example No. 26 (Example No. 8 for Example Nos. 74 and 75)
# Protocol: Test Example 1-2: Evaluation of KRAS Degradation Action on Human G12D Mutant KRAS-Positive Pancreatic Cancer Line AsPC-1 The KRAS degradation action of test compounds was evaluated by measuring the expression levels of KRAS G12D by Cell ELISA. […] As for the cell culture conditions, a RPMI 1640 medium containing 10% fetal bovine serum was used in the presence of 5% CO2 at 37° C. […]
DC50 values, listed per item

# COMPOUND, MEASUREMENT_TARGET, DC50 [nM]
measured = [
    ("CO[C@H](C)COc1nc(N2C[C@@H]3C[C@H]2CN3)c2cc(C3CC3)c(-c3c(C)c(F)cc4[nH]ncc34)c(OCc3ccc(-c4cn([C@H](C(=O)N5C[C@H](O)C[C@H]5C(=O)N[C@@H](CO)c5ccc(-c6scnc6C)cc5)C(C)C)nn4)cc3)c2n1", "KRAS G12D (Homo sapiens, UniProt P01116, G12D)", 13),
    ("CO[C@H](C)[C@@H](C)Oc1nc(N2C[C@@H]3C[C@H]2CN3)c2cc(C3CC3)c(-c3c(C)c(F)cc4[nH]ncc34)c(OCc3ccc(-c4cn([C@H](C(=O)N5C[C@H](O)C[C@H]5C(=O)N[C@@H](CO)c5ccc(-c6scnc6C)cc5)C(C)C)nn4)cc3)c2n1", "KRAS G12D (Homo sapiens, UniProt P01116, G12D)", 6),
    ("COC[C@H](C)Oc1nc(N2C[C@@H]3C[C@H]2CN3)c2cc(C3CC3)c(-c3c(C)c(F)cc4[nH]ncc34)c(OCc3ccc(-c4cn([C@H](C(=O)N5C[C@H](O)C[C@H]5C(=O)N[C@@H](CO)c5ccc(-c6scnc6C)cc5)C(C)C)nn4)cc3)c2n1", "KRAS G12D (Homo sapiens, UniProt P01116, G12D)", 8),
    ("COC[C@@H](C)Oc1nc(N2C[C@@H]3C[C@H]2CN3)c2cc(C3CC3)c(-c3c(C)c(F)cc4[nH]ncc34)c(OCc3ccc(-c4cn([C@H](C(=O)N5C[C@H](O)C[C@H]5C(=O)N[C@@H](CO)c5ccc(-c6scnc6C)cc5)C(C)C)nn4)cc3)c2n1", "KRAS G12D (Homo sapiens, UniProt P01116, G12D)", 5),
    ("Cc1ncsc1-c1ccc([C@H](CO)NC(=O)[C@@H]2C[C@@H](O)CN2C(=O)[C@H](C(C)C)n2cc(-c3ccc(COc4c(-c5c(C)c(F)cc6[nH]ncc56)c(C5CC5)cc5c(N6C[C@@H]7C[C@H]6CN7)nc(OCC6(CO)CCOCC6)nc45)cc3)nn2)cc1 (atropisomer, axis not shown)", "KRAS G12D (Homo sapiens, UniProt P01116, G12D)", 17),
    ("Cc1c(F)cc2[nH]ncc2c1-c1c(C2CC2)cc2c(N3C[C@@H]4C[C@H]3CN4)nc(OC3CCOCC3)nc2c1OCc1ccc(-c2cn([C@H](C(=O)N3C[C@H](O)C[C@H]3C(=O)N[C@@H](CO)c3cccc(S(C)(=O)=O)c3)C(C)C)nn2)cc1", "KRAS G12D (Homo sapiens, UniProt P01116, G12D)", 840),
    ("COCCN1CC[C@H](Oc2nc(N3C[C@@H]4C[C@H]3CN4)c3cc(C4CC4)c(-c4c(C)c(F)cc5[nH]ncc45)c(OCc4ccc(-c5cn([C@H](C(=O)N6C[C@H](O)C[C@H]6C(=O)N[C@@H](CO)c6ccc(-c7scnc7C)cc6)C(C)C)nn5)cc4)c3n2)C1", "KRAS G12D (Homo sapiens, UniProt P01116, G12D)", 139),
]
